REPORTED ENDPOINT: pKa

Solved entries:
c1ccc(CC2CCN(CCCc3c[nH]c4ccc(-n5cnnc5)cc34)CC2)cc1	9.7
FC(Cc1c[nH]c2ccc(-n3cnnc3)cc12)CN1CCC(Cc2ccccc2)CC1 (stereo not given)	8.7
FC1CCNCC1	9.4
CCCCN	10.7
NCCCC(F)(F)F	9.7

[I] CCCCN(C)C
[II] CN(C)CC(F)(F)F
Could you check which of I and II has a smaller value for pKa? Choose, then provide that item's label. II
(II: 4.8, I: 10.2)

====

REPORTED ENDPOINT: pKa

FC(F)(Cc1c[nH]c2ccc(-n3cnnc3)cc12)CN1CCC(Cc2ccccc2)CC1	6.7
NCC(F)F	7.3
NCCCF	9.9
CN(C)C	9.8
CC(=O)N1CCNCC1	7.9
CCN(C)C	10.2
CN(C)C(C)(C)CCCc1ccc(C(C)(C)C)cc1	10.4
NCCC(F)(F)F	8.7

====

REPORTED ENDPOINT: pKa

CN(C)CC(C)(C)CCc1ccc(C(C)(C)C)cc1	9.4
FC1(Cc2ccccc2)CCN(CCCc2c[nH]c3ccc(-n4cnnc4)cc23)CC1	8.8
FC1(F)CCCNC1	7.4
CN(C)CCCC(C)(C)c1ccc(C(C)(C)C)cc1	9.8
CN1CCCCC1	10.1
FC1(F)CCNCC1	8.5
FC1CCCNC1 (stereo not drawn)	9.3
CN(C)CCCCc1ccc(C(C)(C)C)cc1	9.9
